test target: T1, human ROR1 (full-length, on the cell surface) (human, UniProt Q01973 30-937)
T1 construct: whole, on cells; the tumour cell lines carry their own ROR1; also called Ba/F3-ROR1 cells; Jeko-1
T1 sequence (Q01973 30-937): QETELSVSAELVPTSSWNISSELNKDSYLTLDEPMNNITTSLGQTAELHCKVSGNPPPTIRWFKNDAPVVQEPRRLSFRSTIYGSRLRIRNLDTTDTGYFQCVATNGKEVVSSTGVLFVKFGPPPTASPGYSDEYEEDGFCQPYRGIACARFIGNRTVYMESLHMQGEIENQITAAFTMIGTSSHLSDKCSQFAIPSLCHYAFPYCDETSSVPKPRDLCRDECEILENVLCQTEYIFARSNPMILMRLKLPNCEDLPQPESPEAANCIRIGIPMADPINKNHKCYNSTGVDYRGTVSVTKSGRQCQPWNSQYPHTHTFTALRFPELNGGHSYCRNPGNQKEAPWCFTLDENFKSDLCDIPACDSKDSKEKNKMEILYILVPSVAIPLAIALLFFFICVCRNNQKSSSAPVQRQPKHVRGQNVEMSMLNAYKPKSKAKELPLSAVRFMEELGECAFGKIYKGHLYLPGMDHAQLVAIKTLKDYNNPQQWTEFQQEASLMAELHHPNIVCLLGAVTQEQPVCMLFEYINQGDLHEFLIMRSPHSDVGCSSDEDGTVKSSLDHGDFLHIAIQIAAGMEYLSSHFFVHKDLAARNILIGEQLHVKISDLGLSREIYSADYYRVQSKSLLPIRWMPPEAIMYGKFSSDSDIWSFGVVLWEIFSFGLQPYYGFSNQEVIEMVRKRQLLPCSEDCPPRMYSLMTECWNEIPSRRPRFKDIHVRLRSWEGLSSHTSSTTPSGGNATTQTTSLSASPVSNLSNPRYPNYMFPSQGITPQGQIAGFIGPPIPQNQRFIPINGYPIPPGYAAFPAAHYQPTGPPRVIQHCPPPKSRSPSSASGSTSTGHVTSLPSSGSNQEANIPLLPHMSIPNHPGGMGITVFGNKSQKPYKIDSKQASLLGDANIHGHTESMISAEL
assay details: flow cytometry, A549 cells
quantity kind: pEC50
Note on pEC50: it is the negative log10 of concentration, concentration in mol/L.

Example cases with answers are listed next.
binder: 38F8-Hu34 (antibody, human IgG1, kappa, V domains shown, humanized, human IgG1 / kappa) VH: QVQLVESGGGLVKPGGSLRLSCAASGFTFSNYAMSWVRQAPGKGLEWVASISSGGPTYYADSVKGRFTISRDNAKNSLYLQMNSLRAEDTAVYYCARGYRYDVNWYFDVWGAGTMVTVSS VL: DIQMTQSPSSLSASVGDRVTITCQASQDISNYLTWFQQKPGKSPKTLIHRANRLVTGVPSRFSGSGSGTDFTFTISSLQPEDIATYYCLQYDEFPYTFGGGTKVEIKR
measured number: 9.72

binder: 3D8-Hu96 (antibody, human IgG1, kappa, V domains shown, humanized, human IgG1 / kappa) VH: EVQLVESGGGLVQPGGSLRLSCAASGFTFSSYAMSWVRQAPEKRLEWVSSISNGGSTYYPDSVKGRFTISRDNSKNTLYLQMNSLRAEDTAVYYCARVNYYGYGDYAMDYWGQGTLVTVSS VL: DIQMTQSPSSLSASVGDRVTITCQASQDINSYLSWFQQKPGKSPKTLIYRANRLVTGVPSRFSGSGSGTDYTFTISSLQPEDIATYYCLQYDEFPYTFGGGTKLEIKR
measured number: 9.27

binder: 19F6-Hu35V5 (antibody, human IgG1, kappa, V domains shown, humanized, human IgG1 / kappa) VH: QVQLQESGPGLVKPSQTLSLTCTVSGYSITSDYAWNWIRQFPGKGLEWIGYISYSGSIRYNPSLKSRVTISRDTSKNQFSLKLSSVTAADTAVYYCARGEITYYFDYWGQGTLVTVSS VL: ETTLTQSPAFMSATPGDKVTISCKASTDIDDDMNWYQQKPGKPPKLIISEGNTLRPGIPPRFSSSGYGTDFTFTINNIKSEDAATYYCLQSNDLPLTFGQGTKLEIKR
measured number: 9.80

binder: 19F6-Hu35V10 (antibody, human IgG1, kappa, V domains shown, humanized, human IgG1 / kappa) VH: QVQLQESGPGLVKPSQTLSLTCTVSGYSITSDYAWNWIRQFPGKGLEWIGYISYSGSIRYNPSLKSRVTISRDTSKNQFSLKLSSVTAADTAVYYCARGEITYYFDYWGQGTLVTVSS VL: ETTLTQSPAFMSATPGDKVTISCKASTDIDSDMNWYQQKPGKPPKLIISEGNTLRPGIPPRFSSSGYGTDFTFTIRKIESEDAADYYCLQSNDLPLTFGQGTKLEIKR
measured number: 9.92

binder: 3D8-HuC44 (antibody, human IgG1, kappa, V domains shown, humanized, human IgG1 / kappa) VH: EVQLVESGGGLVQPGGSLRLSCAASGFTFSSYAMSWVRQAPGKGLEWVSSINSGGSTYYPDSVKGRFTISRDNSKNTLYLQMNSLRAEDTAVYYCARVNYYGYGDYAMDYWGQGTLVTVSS VL: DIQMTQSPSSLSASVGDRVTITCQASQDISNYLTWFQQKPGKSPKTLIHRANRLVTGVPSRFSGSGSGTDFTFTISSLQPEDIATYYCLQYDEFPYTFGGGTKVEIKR
measured number: 9.74

binder: 19F6-Hu35V3 (antibody, human IgG1, kappa, V domains shown, humanized, human IgG1 / kappa) VH: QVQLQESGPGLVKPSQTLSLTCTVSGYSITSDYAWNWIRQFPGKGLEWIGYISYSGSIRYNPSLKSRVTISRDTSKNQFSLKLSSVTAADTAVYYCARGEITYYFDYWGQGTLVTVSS VL: ETTLTQSPAFMSATPGDKVTISCKASTSIDDDMNWYQQKPGKPPKLIISEGNTLRPGIPPRFSSSGYGTDFTFTINKIESEDAATYYCLQSNDLPLTFGQGTKLEIKR
measured number: 10.00

binder: 3D8-Hu55 (antibody, human IgG1, kappa, V domains shown, humanized, human IgG1 / kappa) VH: EVQLVESGGGLVQPGGSLRLSCAASGFTFSSYAMSWVRQAPGKGLEWVSSINSGGSTYYPDSVKGRFTISRENAKNSLYLQMNSLRAGDTAVYYCARVNYYGYGDYAMDYWGQGTLVTVSS VL: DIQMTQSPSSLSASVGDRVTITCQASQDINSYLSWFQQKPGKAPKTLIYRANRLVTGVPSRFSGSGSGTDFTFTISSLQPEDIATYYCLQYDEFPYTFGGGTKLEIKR
measured number: 9.64

binder: 3D8-HuC94 (antibody, human IgG1, kappa, V domains shown, humanized, human IgG1 / kappa) VH: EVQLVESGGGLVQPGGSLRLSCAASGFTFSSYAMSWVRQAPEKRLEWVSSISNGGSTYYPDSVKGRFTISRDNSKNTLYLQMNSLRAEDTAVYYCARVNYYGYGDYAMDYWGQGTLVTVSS VL: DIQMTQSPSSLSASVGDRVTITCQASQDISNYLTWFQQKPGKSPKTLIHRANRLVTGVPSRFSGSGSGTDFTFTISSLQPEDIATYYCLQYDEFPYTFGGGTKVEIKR
measured number: 8.86

query: Identify pEC50 associated with the binder 19F6-Hu35V2 (antibody, human IgG1, kappa, V domains shown, humanized, human IgG1 / kappa) VH: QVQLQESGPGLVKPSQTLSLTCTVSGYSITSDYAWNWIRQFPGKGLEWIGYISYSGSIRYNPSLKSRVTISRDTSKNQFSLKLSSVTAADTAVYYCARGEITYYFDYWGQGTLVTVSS VL: ETTLTQSPAFMSATPGDKVTISCKASTDIDSDMNWYQQKPGEPPKLIISEGNTLRPGIPPRFSSSGYGTDFTFTINKIKSEDAATYYCLQSNDLPLTFGQGTKLEIKR
result: 10.00

query: For the binder 3D8-Hu86 (antibody, human IgG1, kappa, V domains shown, humanized, human IgG1 / kappa) VH: EVQLVESGGGLVQPGGSLRLSCAASGFTFSSYAMSWVRQAPEKRLEWVSSISSGGSTYYPDSVKGRFTISRDNSKNTLYLQMNSLRAEDTAVYYCARVNYYGYGDYAMDYWGQGTLVTVSS VL: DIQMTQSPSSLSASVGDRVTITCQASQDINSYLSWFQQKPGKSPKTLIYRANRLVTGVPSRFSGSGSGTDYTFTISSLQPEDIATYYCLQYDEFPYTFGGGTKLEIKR , give its reported pEC50.
result: 9.55
